Target: UniProt P17931
Sequence (P17931 whole entry): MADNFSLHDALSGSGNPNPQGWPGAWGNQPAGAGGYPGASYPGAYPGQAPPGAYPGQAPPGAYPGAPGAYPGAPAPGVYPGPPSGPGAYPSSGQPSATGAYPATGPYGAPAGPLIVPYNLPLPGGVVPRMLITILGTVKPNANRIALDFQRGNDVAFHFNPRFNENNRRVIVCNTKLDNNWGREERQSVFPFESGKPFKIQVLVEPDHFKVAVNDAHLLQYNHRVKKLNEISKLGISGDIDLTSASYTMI
In this section we review reported pIC50 values for a set of compounds.
Remember, pIC50 is on a log scale: it is -log10 of the molar concentration.

• COCCCNC(=O)[C@@H](OCc1ccc(Br)cc1)[C@@H]1OC(CO)[C@H](O)C(n2cc(-c3cc(F)c(F)c(F)c3)nn2)C1OC (some centres unmarked) [Compound 20] = 6.58
• COCCCN(C)C(=O)[C@@H](OCc1ccc(Br)cc1)[C@@H]1OC(CO)[C@H](O)C(n2cc(-c3cc(F)cc(F)c3)nn2)C1OC (some centres unmarked) [Compound 22] = 5.83
• [2H]C([2H])([2H])OC1C(n2cc(-c3cc(F)c(F)c(F)c3)nn2)[C@@H](O)C(CO)O[C@H]1[C@H](OCc1ccc(Br)cc1)C(=O)NC1COC1 (some centres unmarked) [Compound 64] = 6.63

Jot down pIC50 (UniProt P17931) of [2H]C([2H])([2H])OC1C(n2cc(-c3cc(F)c(F)c(F)c3)nn2)[C@@H](O)C(CO)O[C@H]1[C@H](OCc1ccc(Br)cc1)C(=O)N[C@H]1C[C@H]1F (some centres unmarked) [Compound 65] . 6.44

Jot down pIC50 (UniProt P17931) of [2H]C([2H])([2H])OC1C(n2cc(-c3cc(F)c(F)c(F)c3)nn2)[C@@H](O)C(CO)O[C@H]1[C@H](OCc1ccc(Br)cc1)C(=O)NC([2H])(C([2H])([2H])[2H])C([2H])([2H])[2H] (some centres unmarked) [Compound 46] . 6.64
